read-out: Cytochrome P450 2C19 (Homo sapiens) (UniProt P33261); assay: LTEA_HepaRG_CYP2C19: Life Technologies and Expression Analysis (LTEA) Assay for CYP2C19 using HepaRG (AID 2283482); conditions: mRNA level, 48 h; actives raise or lower the signal
Sequence (P33261 whole entry, looked up): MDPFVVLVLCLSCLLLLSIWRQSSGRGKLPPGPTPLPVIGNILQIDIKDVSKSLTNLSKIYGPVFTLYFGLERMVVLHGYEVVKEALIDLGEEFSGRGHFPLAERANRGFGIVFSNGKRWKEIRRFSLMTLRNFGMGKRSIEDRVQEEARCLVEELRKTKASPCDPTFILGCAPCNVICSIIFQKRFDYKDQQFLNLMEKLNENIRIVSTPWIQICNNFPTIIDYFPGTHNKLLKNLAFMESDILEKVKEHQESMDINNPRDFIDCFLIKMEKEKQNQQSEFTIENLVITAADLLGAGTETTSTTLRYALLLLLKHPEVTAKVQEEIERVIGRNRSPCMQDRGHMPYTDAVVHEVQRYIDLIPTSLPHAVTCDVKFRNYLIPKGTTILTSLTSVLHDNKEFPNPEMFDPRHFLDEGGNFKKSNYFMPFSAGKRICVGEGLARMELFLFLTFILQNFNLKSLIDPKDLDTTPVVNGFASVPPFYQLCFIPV
Activity calls are given as the source filed them. How the source made its calls: active means hit-call score of the fitted dose curve at least 0.9, where 1 is the maximum; inactive means score below 0.9.
Respond with a class label; see active, inactive

Q: Tell me the assay call for COC(=O)c1ccc(O)cc1 please.
A: inactive

Q: Tell me the assay call for CCCCCCC(=O)OCC please.
A: active

Q: Tell me the assay call for Cc1ccc(C(C)C)c(O)c1 please.
A: inactive

Q: Tell me the assay call for CNCc1cc(F)ccc1Oc1ccc(Cl)c(Cl)c1 please.
A: active

Q: Tell me the assay call for CCCCCCCCCCC please.
A: inactive

Q: Tell me the assay call for Cc1ccc(Cl)cc1 please.
A: inactive

Q: Tell me the assay call for C[Si]1(C)O[Si](C)(C)O[Si](C)(C)O[Si](C)(C)O1 please.
A: inactive

Q: Tell me the assay call for Cc1ccc(N(C)C)cc1 please.
A: inactive

---

read-out: Cyclin Dependent Kinase Inhibitor 1A (CDKN1A), CDKN1A (gene 1026); test: LTEA_HepaRG_CDKN1A: Life Technologies and Expression Analysis (LTEA) Assay for Cyclin Dependent Kinase Inhibitor 1A (CDKN1A) using HepaRG (AID 2283450); details: mRNA level, 48 h; actives raise or lower the signal
Active and inactive are the calls of the source. Rule for the calls: active = hit-call score of the fitted dose curve at least 0.9, where 1 is the maximum; inactive = score below 0.9.
Respond with a class label; see active, inactive

Q: Tell me the assay call for CC(=O)OCCOCCOCCOC(C)=O please.
A: inactive

Q: Tell me the assay call for CCOc1ccc2c(c1)C(C)=CC(C)(C)N2 please.
A: active

Q: Tell me the assay call for O=c1c(O)c(-c2ccc(O)c(O)c2)oc2cc(O)cc(O)c12 please.
A: inactive

Q: Tell me the assay call for NCC1(Cc2noc(=O)[nH]2)CCCCC1 please.
A: inactive

Q: Tell me the assay call for CCCCOC(=O)CCCCCCCCC(=O)OCCCC please.
A: inactive

Q: Tell me the assay call for CC(=O)OC/C=C(\C)CCC=C(C)C please.
A: inactive

Q: Tell me the assay call for CN[C@H]1CC[C@@H](c2ccc(Cl)c(Cl)c2)c2ccc(S(N)(=O)=O)cc21 please.
A: inactive

Q: Tell me the assay call for Cc1nc(C)nc(N2C[C@@H](C)N(c3ccnc([C@@H](C)O)n3)[C@@H](C)C2)n1 please.
A: inactive

Q: Tell me the assay call for CCCCC(CC)COC(=O)CC(C(=O)OCC(CC)CCCC)S(=O)(=O)O (stereo unspecified) please.
A: inactive

Q: Tell me the assay call for COCCOC[C@H](CC1(C(=O)NC2CCC(C(=O)O)CC2)CCCC1)C(=O)Oc1ccc2c(c1)CCC2 (stereo partly specified) please.
A: inactive

Q: Tell me the assay call for Cc1ccc(Cl)cc1 please.
A: inactive

Q: Tell me the assay call for Oc1ccc2c(c1)OC[C@@H](N1CCC(O)(c3ccc(F)cc3)CC1)[C@H]2O please.
A: inactive

Q: Tell me the assay call for CCOC(=O)C(C)(C)Oc1ccc(Cl)cc1 please.
A: inactive

Q: Tell me the assay call for CN1CCN(Cc2cc(-c3ccc4[nH]c(=O)oc4c3)co2)[C@@H](c2ccc(F)cc2)C1 please.
A: inactive

Q: Tell me the assay call for Cc1ccc(C(C)C)c(O)c1 please.
A: inactive

Q: Tell me the assay call for NC(=O)Cn1c(=O)cc(CCN2CCN(c3nccc4sccc34)CC2)c2ccc(F)cc21 please.
A: active

Q: Tell me the assay call for CCCc1cc(=O)[nH]c(=S)[nH]1 please.
A: inactive

Q: Tell me the assay call for Cc1cccc(C)c1O please.
A: inactive

Q: Tell me the assay call for COc1cc(-c2nc(NC(=O)c3cc4cc(C)cc(C)c4n3CC(=O)O)sc2CCC2CCCCC2)c(OC)cc1Cl please.
A: inactive

Q: Tell me the assay call for CNC(=O)[C@H]1O[C@@H](n2cnc3c(NCc4cc(Cl)ccc4OCc4cc(C)no4)ncnc32)[C@H](O)[C@@H]1N please.
A: inactive

Q: Tell me the assay call for NS(=O)(=O)c1cc2c(cc1Cl)NCNS2(=O)=O please.
A: inactive

Q: Tell me the assay call for CNCc1cc(F)ccc1Oc1ccc(Cl)c(Cl)c1 please.
A: active

Q: Tell me the assay call for CCCCCCCCCCO please.
A: inactive

Q: Tell me the assay call for CC1=C(/C=C/C(C)=C/C=C/C(C)=C/CO)C(C)(C)CCC1 please.
A: inactive

Q: Tell me the assay call for CC=Cc1ccc(O)c(OC)c1 please.
A: inactive

Q: Tell me the assay call for c1cc(-c2ccncc2)ccn1 please.
A: inactive
